Where a name gives a salt, the structure may show the parent alone.
Would you mind telling me the reported melting point of each entry?

Query: Look at this compound and give its reported melting point. Clc1cccc(N2CCN(CCCCCN3CCc4ccccc43)CC2)c1Cl (as salt: hydrochloride) [Compound 2c]
Reply: 219 to 228 °C

Query: Recorded melting point for Clc1ccc2c(SCCN3CCN(c4cccc(Cl)c4Cl)CC3)c[nH]c2c1 (as salt: oxalate) [Compound 4] , please?
Reply: 137 to 141 °C

Query: I would be grateful if you could share the reported melting point for Clc1cccc(N2CCN(CCCCC3CCc4ccccc43)CC2)c1Cl (stereo not shown) (as salt: oxalate) [Compound 3] .
Reply: 171 to 176 °C

Query: melting point; subject: O=C1CCc2ccccc2N1CCCCN1CCN(c2cccc(Cl)c2Cl)CC1 (as salt: hydrochloride) [Compound 6]
Reply: 234 to 235 °C
